B1: STEAP1 (parent)
chain: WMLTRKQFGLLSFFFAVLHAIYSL

- Variants of: B1
- TEST METHOD NOTES: protein stability index of a GFP-peptide fusion (GPS, HEK-293T) (PSI 1-6); higher = more stable;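 further: lentivirally expressed fusions sorted by FACS into six bins by GFP to DsRed ratio, PSI derived from sequencing read proportions per bin multiplied by bin number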
- TEST PARAMETERS: c terminus: a fixed tail appended
READOUT: protein stability index

VARIANT CODE	protein stability index
A20N	2.02
F13A	3.27
V17S	2.07

Q. Tell me the measured protein stability index of L3Q , please.
A. 2.05

Q. Tell me the measured protein stability index of T4C , please.
A. 1.8
